- Tested on: U2OS
- assay protocol: Multiplex assay against U2OS
- Type: toxicity, cell-based
- measurement context: human, 48 h, 10 µM, compound concentration 10 uM, replicate 1
measured parameter: Population Normal (%)
Numbers only, in %.

// returns reported Population Normal (%) for input O=C(NCC(=O)N1CC[C@H](N[C@H]2CC[C@@](O)(c3ccc(-c4ncccn4)cn3)CC2)C1)c1cccc(C(F)(F)F)c1 95

Next: Cc1ccc(C(C)(O)c2nc3ccccc3s2)c(C)c1 (stereo not given) 97

Field entry: CSc1ccccc1N1CCN(CCCCCC(=O)NC2CCCc3ccccc32)CC1.Cl (stereo not given) 84

// query: CC1(COc2ccc3c(c2)ncn3-c2ccc3cccc(N4CCC(N)CC4)c3n2)COC1 58

Please answer likewise for COc1cc(C(=O)N(CCCc2ccccc2)Cc2ccc(CC(=O)O)cc2)cc(OC)c1C 98

Likewise for CN(C)c1ccnc2sc3c(=O)n(N4CCCCCC4)cnc3c12 ? 95

Please go through the list and note Population Normal (%) for each compound.
1. Oc1c(CN2CCN(c3ccccn3)CC2)cc(Cl)c2cccnc12
2. CCOc1c2c(c(OCC)c3ncccc13)CN(c1ccc(CS(=O)(=O)NC(=O)Cc3ccccc3OC)cc1C)C2=O
3. O=C1COc2nccc(-c3ccccc3F)c2CN1Cc1cc(C(F)(F)F)cc(C(F)(F)F)c1
4. Cl.Clc1ccc2nsnc2c1NC1=NCCN1 [TIZANIDINE HYDROCHLORIDE]

1: 97; 2: 97; 3: 95; 4: 97
